Examples of binders with documented pIC50 Category (FACS) follow.
Target: T1, fibroblast activation protein (FAP) on FAP-expressing human WI-38 fibroblasts (human, UniProt Q12884 1-760)
T1 construct: also called human FAP
Assay: competitive FACS, WI-38 cells, vs Cy5 tracer m3; A = pIC50 >8.0
Numbered stars: 1 amine (or outer) side, 2 acyl side, 3 side chain; on linkers, the order of the positions; unused ones are H or OH. Bridge positions count the residues as written; N and C are the ends. Primed or numbered codes have the meaning given here. * marks the point of attachment. TBMB(SCH2CH2NH-DOTA) = O=C(O)CN1CCN(CC(=O)O)CCN(CC(=O)NCCSCc2cc(C[*:1])cc(C[*:2])c2)CCN(CC(=O)O)CC1; 3Lut″ = 3,5-lutidylidene (from 3,5-lutidine); Hexanoyl = CCCCCC(=O)*
REPORTED ENDPOINT: pIC50 Category (FACS)

[
  {
    "BINDER": "Hexanoyl-CPPTQFCS-OH (linker 1-7 via TBMB(SCH2CH2NH-DOTA); SMILES CCCCCC(=O)N[C@H]1CSCc2cc(CSCCNC(=O)CN3CCN(CC(=O)O)CCN(CC(=O)O)CCN(CC(=O)O)CC3)cc(c2)CSC[C@@H](C(=O)N[C@@H](CO)C(=O)O)NC(=O)[C@H](Cc2ccccc2)NC(=O)[C@H](CCC(N)=O)NC(=O)[C@H]([C@@H](C)O)NC(=O)[C@@H]2CCCN2C(=O)[C@@H]2CCCN2C1=O, also called 3BP-3658) [Hex-[Cys(tMeBn(DOTA-AET))-Pro-Pro-Thr-Gln-Phe-Cys]-Ser-OH]",
    "REPORTED VALUE": "> 8 pIC50"
  },
  {
    "BINDER": "Hexanoyl-CPPTQFCD-NH2 (linker 1-7 via 3Lut″, also called 3BP-3519) [Hex-[Cys(3Lut)-Pro-Pro-Thr-Gln-Phe-Cys]-Asp-NH2]",
    "REPORTED VALUE": "> 8 pIC50"
  }
]

Cited source for all entries: patent US20230212549A1
